assay: Tmax in healthy human (24 volunteers) at 400 mg, po reference formulation of drug administered as single dose; assay type: ADME, organism-based; conditions: in vivo
ATTRIBUTE MEASURED: Tmax (h)
One number for each entry, in h.

Input line: Fill in: Tmax of CC[C@H]1OC(=O)[C@H](C)[C@@H](O[C@H]2C[C@@](C)(OC)[C@@H](O)[C@H](C)O2)[C@H](C)[C@@H](O[C@@H]2O[C@H](C)C[C@H](N(C)C)[C@H]2O)[C@](C)(O)C[C@@H](C)C(=O)[C@H](C)[C@@H](O)[C@]1(C)O [ERYTHROMYCIN] is ___
Output line: 1.38

====

assay: Half life in healthy human (24 volunteers) at 400 mg, po test formulation of drug administered as single dose; type: ADME, organism-based; settings: in vivo
ATTRIBUTE MEASURED: half-life (h)
Numbers only, in h.

Input line: Fill in: half-life of CC[C@H]1OC(=O)[C@H](C)[C@@H](O[C@H]2C[C@@](C)(OC)[C@@H](O)[C@H](C)O2)[C@H](C)[C@@H](O[C@@H]2O[C@H](C)C[C@H](N(C)C)[C@H]2O)[C@](C)(O)C[C@@H](C)C(=O)[C@H](C)[C@@H](O)[C@]1(C)O is ___
Output line: 3.64

====

assay: Clearance in healthy human (24 volunteers) at 400 mg, po test formulation of drug administered as single dose by two-compartmental open model; format: ADME, organism-based; conditions: in vivo
ATTRIBUTE MEASURED: CL/F (mL/min/kg)
Numbers only, in mL/min/kg.

Input line: Fill in: CL/F of CC[C@H]1OC(=O)[C@H](C)[C@@H](O[C@H]2C[C@@](C)(OC)[C@@H](O)[C@H](C)O2)[C@H](C)[C@@H](O[C@@H]2O[C@H](C)C[C@H](N(C)C)[C@H]2O)[C@](C)(O)C[C@@H](C)C(=O)[C@H](C)[C@@H](O)[C@]1(C)O is ___
Output line: 225

====

test: Half life in healthy human (24 volunteers) at 400 mg, po reference formulation of drug administered as single dose; type: ADME, organism-based; conditions: in vivo
ATTRIBUTE MEASURED: half-life (h)
Answers are plain numbers, in h.

Input line: Fill in: half-life of CC[C@H]1OC(=O)[C@H](C)[C@@H](O[C@H]2C[C@@](C)(OC)[C@@H](O)[C@H](C)O2)[C@H](C)[C@@H](O[C@@H]2O[C@H](C)C[C@H](N(C)C)[C@H]2O)[C@](C)(O)C[C@@H](C)C(=O)[C@H](C)[C@@H](O)[C@]1(C)O is ___
Output line: 3.61

====

assay: Cmax in healthy human (24 volunteers) at 500 mg, po reference formulation of drug administered as single dose measured after 0.5 to 72 hrs; type: ADME, organism-based; parameters: dose 500 mg, route oral; details: in vivo
ATTRIBUTE MEASURED: Cmax (ng/mL)
Give bare numbers, in ng/mL.

Input line: Fill in: Cmax of CC[C@@H]1OC(=O)[C@H](C)[C@@H](O[C@@H]2C[C@](C)(OC)[C@H](O)[C@@H](C)O2)[C@@H](C)[C@@H](O[C@@H]2O[C@H](C)C[C@H](N(C)C)[C@H]2O)[C@](C)(O)C[C@@H](C)CN(C)[C@H](C)[C@@H](O)[C@]1(C)O is ___
Output line: 488
